// data source = paper PMC8016166

# Ki listing for each entry below
- Target system: 5-HT2CR (Rattus norvegicus)
- Construct: from tissue; host or cells: frontal cortex of male Sprague-Dawley rats
- Sequence (P08909 33-460): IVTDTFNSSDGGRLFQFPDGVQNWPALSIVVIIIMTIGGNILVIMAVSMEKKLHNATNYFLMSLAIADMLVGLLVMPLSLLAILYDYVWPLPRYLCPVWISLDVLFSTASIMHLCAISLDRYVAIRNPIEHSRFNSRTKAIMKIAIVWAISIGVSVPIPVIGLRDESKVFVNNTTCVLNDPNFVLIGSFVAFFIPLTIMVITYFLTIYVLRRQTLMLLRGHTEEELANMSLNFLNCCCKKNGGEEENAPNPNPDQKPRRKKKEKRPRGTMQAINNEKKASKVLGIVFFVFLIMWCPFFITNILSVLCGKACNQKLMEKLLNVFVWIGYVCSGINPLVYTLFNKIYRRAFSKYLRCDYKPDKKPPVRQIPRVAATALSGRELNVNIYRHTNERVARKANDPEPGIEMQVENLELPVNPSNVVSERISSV
- Protocol notes: Radioligand binding at 5-HT2C on rat frontal cortex membranes
- Measurement setup: rat frontal cortex membranes; [3H]mesulergine; read-out: 5-HT2C pKi ± SEM (converted)
- Protocol: Male Sprague–Dawley rats were decapitated and their brains removed and placed on ice. […] The 5-HT2A assay was performed according to a previously described protocol with some modifications.[48] […] Nonspecific binding was determined in the presence of 10 μM mianserin. […] The filter-bound radioactivity was counted in a MicroBeta^2 Microplate Counter. Curves were fitted with a one-site sigmoidal dose–response equation and pKi for each compound was calculated with the Cheng-Pursoff equation. […]
Use nM as the unit, but write only the number.

Example entries and their recorded answers appear below.
> print(dat)
                                   compound  measured.endpoint  value.unit  measurement
1  Cn1cncc1-c1ccccc1OCCNCC1COC(c2ccccc2)(c2ccccc2)O1 (racemic) [rac-2]                 Ki          nM          331
2  c1ccc(C2(c3ccccc3)OCC(CNCCOc3ccccc3-c3ccncc3)O2)cc1 (racemic) [rac-1]                 Ki          nM          363

Field: next compound
Inquiry: Please look at this compound and report its Ki: c1ccc(C2(c3ccccc3)OC[C@@H](CNCCOc3ccccc3-c3ccncc3)O2)cc1 [(R)-1]
Reply text: 912

----------
- Target system: human 5-HT7b (Homo sapiens, UniProt P34969)
- Construct: expressed in transfected cells
- Sequence (P34969 1-432): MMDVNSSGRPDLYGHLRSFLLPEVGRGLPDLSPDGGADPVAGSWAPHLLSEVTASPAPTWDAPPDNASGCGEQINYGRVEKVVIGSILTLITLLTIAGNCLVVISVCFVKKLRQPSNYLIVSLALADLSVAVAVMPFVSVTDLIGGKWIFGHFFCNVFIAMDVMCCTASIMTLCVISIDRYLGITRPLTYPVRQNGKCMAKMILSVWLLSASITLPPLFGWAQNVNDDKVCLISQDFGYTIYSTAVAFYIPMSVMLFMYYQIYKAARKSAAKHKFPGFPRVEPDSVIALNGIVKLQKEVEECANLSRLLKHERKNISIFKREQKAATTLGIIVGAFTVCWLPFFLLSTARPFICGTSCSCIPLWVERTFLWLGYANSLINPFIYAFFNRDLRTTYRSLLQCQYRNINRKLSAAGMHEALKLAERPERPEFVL
- Protocol notes: Radioligand binding at 5-HT7 in transfected HEK293 cells
- Measurement setup: transfected HEK293 cells; [3H]-5-CT; read-out: 5-HT7 pKi ± SEM (converted)
Values of Ki strictly less than 600 nM map to class 1, and values of at least 600 nM map to class 0.

> print(dat)
                                   compound    group
1  c1ccc(C2(c3ccccc3)OC[C@@H](CNCCOc3ccccc3-c3ccncc3)O2)cc1 [(R)-1]  class 1
2  Cn1cncc1-c1ccccc1OCCNC[C@@H]1COC(c2ccccc2)(c2ccccc2)O1 [(R)-2]  class 0
3  c1ccc(C2(c3ccccc3)OC[C@H](CNCCOc3ccccc3-c3ccncc3)O2)cc1 [(S)-1]  class 1
4  c1ccc(C2(c3ccccc3)OCC(CNCCOc3ccccc3-c3ccncc3)O2)cc1 (racemic)  class 1

Inquiry: Is it true that Ki reported for Cn1cncc1-c1ccccc1OCCNCC1COC(c2ccccc2)(c2ccccc2)O1 (racemic) is less than 600 nM?
Reply text: class 0

----------
- Target system: human 5-HT7b (Homo sapiens, UniProt P34969)
- Construct: expressed in transfected cells
- Protocol notes: Radioligand binding at 5-HT7 in transfected HEK293 cells
- Measurement setup: Antilog [pKi (5-HT1AR) – pKi (5-HT7R)]
Lab note: anything with selectivity 5-HT7/5-HT1A at or over 70 counts as satisfied; the rest go in not satisfied.

Consider the worked cases shown below.
> print(dat)
                                   molecule                             target.system          group
1  Cn1cncc1-c1ccccc1OCCNC[C@@H]1COC(c2ccccc2)(c2ccccc2)O1 [(R)-2]  human 5-HT7b (Homo sapiens, UniProt P34969)  not satisfied
2  c1ccc(C2(c3ccccc3)OC[C@H](CNCCOc3ccccc3-c3ccncc3)O2)cc1 [(S)-1]  human 5-HT7b (Homo sapiens, UniProt P34969)  not satisfied
3  Cn1cncc1-c1ccccc1OCCNC[C@H]1COC(c2ccccc2)(c2ccccc2)O1 [(S)-2]  human 5-HT7b (Homo sapiens, UniProt P34969)      satisfied

Inquiry: Reported selectivity 5-HT7/5-HT1A at or above 70? c1ccc(C2(c3ccccc3)OC[C@@H](CNCCOc3ccccc3-c3ccncc3)O2)cc1 [(R)-1]
Reply text: satisfied

Inquiry: Check this molecule for selectivity 5-HT7/5-HT1A at or above 70: Cn1cncc1-c1ccccc1OCCNCC1COC(c2ccccc2)(c2ccccc2)O1 (racemic)
Reply text: satisfied

Inquiry: Assess whether reported selectivity 5-HT7/5-HT1A for c1ccc(C2(c3ccccc3)OCC(CNCCOc3ccccc3-c3ccncc3)O2)cc1 (racemic) sits at 70 or higher.
Reply text: not satisfied
